- study_target: Insulin-like growth factor 1 receptor (Homo sapiens)
- assay_details: Inhibition of recombinant IGF1R by ELISA
Exercise: state measured IC50 for each of the compounds provided.

Documented IC50 of Cc1cc(NC(=O)Nc2ccc(-c3ncccn3)cc2)c2ccccc2n1 : > 30 µM

Value of measured IC50 for the entry COc1ccc(Cl)cc1NC(=O)Nc1cc(C)nc2cnccc12 : > 30 µM

response.value for COc1ccc(NC(=O)Nc2cc(Cl)nc3ccccc23)cc1 (field: IC50) = > 30 µM

In plain terms, Cc1cncc(Oc2ccc(NC(=O)Nc3cc(Cl)nc4ccccc34)cc2)n1 has a documented IC50 of > 30 µM

Memo: O=C(Nc1ccc(Cl)cc1)Nc1cc(C(F)(F)F)nc2ccccc12 , reported IC50: 28.1 µM

Lab note: measured IC50 of O=C(Nc1cccc(-c2ncccn2)c1)Nc1cc(Cl)nc2ccccc12 was > 30 µM

So, Cc1cncc(Oc2ccc(NC(=O)Nc3cc(C)nc4ncccc34)cc2)n1 ? Its IC50 was 12.5 µM

// O=C(Nc1ccc(Cl)cc1)Nc1cc(Cl)nc2ccccc12 : IC50 value = 21.1 µM

IC50 recorded for this compound, O=C(Nc1ccc([N+](=O)[O-])cc1)Nc1cc(C(F)(F)F)nc2ccccc12 , is 27.1 µM

Memo: COc1ccc(Cl)cc1NC(=O)Nc1cc(C)nc2c1CCCN2 , reported IC50: 20.5 µM

Memo: COc1ccc(Cl)cc1NC(=O)Nc1cc(C)nc2ccccc12 , reported IC50: 18.7 µM

###

- study_target: Insulin-like growth factor 1 receptor (Homo sapiens, UniProt P08069)
- Sequence (P08069 31-736 limits assumed): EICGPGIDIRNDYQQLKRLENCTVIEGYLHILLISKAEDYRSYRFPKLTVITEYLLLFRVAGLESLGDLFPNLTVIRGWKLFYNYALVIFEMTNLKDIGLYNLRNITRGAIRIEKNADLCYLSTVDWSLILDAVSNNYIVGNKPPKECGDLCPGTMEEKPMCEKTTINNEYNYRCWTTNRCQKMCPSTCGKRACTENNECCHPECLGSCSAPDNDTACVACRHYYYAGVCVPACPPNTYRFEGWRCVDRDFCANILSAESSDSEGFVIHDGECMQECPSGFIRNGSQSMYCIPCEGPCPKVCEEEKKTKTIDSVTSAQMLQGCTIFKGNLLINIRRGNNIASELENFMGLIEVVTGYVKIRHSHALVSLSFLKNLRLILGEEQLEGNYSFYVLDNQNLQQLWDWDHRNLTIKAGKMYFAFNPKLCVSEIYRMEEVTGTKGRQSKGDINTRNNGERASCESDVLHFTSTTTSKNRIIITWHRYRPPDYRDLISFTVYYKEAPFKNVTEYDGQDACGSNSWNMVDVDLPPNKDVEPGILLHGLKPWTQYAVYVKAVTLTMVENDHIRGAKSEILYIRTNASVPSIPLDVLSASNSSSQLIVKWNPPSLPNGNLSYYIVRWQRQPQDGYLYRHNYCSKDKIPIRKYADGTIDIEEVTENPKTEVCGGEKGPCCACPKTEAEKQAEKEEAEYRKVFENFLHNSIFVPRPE
- Sequence (P08069 741-1367 limits assumed): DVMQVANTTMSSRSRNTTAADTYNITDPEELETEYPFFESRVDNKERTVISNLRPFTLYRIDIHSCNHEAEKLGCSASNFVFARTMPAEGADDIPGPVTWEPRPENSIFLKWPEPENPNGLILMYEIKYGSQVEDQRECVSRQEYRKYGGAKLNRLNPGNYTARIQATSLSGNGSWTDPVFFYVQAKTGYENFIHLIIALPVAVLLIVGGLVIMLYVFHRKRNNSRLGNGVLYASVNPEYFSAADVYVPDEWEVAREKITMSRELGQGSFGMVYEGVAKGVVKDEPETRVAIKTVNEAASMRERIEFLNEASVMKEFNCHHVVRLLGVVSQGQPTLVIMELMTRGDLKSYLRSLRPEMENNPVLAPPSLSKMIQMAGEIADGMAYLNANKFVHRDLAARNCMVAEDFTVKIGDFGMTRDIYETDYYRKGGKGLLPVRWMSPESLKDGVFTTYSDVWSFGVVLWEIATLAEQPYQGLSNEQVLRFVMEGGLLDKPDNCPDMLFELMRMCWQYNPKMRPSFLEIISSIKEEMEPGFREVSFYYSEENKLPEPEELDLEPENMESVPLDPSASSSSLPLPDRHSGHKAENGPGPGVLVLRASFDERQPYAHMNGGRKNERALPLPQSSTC
- assay_details: Inhibition of recombinant IGF1R by ELISA
I'd appreciate it if you could supply IC50 values for the items below.
Lab book: enter the figure in µM, no units written.

IC50 reading for O=C(Nc1ccc(OC(F)(F)F)cc1)Nc1cc(Cl)nc2ccccc12 : 21.4

What the record says about COc1ccc(Cl)cc1NC(=O)Nc1cc(Cl)nc2ccccc12 : IC50 is 14.9

Input O=C(Nc1ccc(OC(F)(F)F)cc1)Nc1cc(C(F)(F)F)nc2ccccc12 . Output IC50: 6.7

# IC50 of COc1ccc(Cl)cc1NC(=O)Nc1cc(C)nc2ncccc12 = 24.7

Consider Cc1cncc(Oc2ccc(NC(=O)Nc3cc(C)nc4ccccc34)cc2)n1 . Its measured IC50 is 5.6

The reported value for COc1ccc(Cl)cc1NC(=O)Nc1cc(=O)[nH]c2ccccc12 in terms of IC50 is 6.5

The molecule Cc1cncc(Oc2ccc(NC(=O)Nc3cc(C(F)(F)F)nc4ccccc34)cc2)n1 showed IC50 equal to 5.2

# IC50 (molecule: O=C(Nc1ccc(-c2ncccn2)cc1)Nc1cc(C(F)(F)F)nc2ccccc12 ) is 19.3

###

- study_target: Insulin-like growth factor 1 receptor (Homo sapiens)
- assay_details: Inhibition of recombinant IGF1R by ELISA
property_measured: IC50

Recorded IC50 (molecule COc1ccc(NC(=O)Nc2cc(C(F)(F)F)nc3ccccc23)cc1 ): > 30 µM

Entry O=C(Nc1ccc(-c2ncccn2)cc1)Nc1cc(Cl)nc2ccccc12 ; IC50 = > 30 µM

Memo: COc1cc(OC)c(NC(=O)Nc2cc(C)nc3cnccc23)cc1Cl , reported IC50: > 30 µM

Entry Cc1cc(NC(=O)Nc2cccc(-c3ncccn3)c2)c2ccccc2n1 ; IC50 = > 30 µM

GET /value?item= COc1ccc(NC(=O)Nc2cc(Cl)nc3ccccc23)cc1Cl &field=IC50 returns > 30 µM

Notebook: COc1ccc(NC(=O)Nc2cc(C)nc3ccccc23)cc1Cl , IC50 read as > 30 µM

Per the records, this molecule ( O=C(Nc1cccc(-c2ncccn2)c1)Nc1cc(C(F)(F)F)nc2ccccc12 ) has IC50 equal to > 30 µM

Sure, the documented IC50 for Cc1cc(NC(=O)Nc2ccc(Cl)cc2)c2ccccc2n1 is > 30 µM
